experimental target: T1, Recombinant human MASP1 enzyme (fragment corresponding to amino acids 297-699, C-terminal His Tag) (human, UniProt P48740 297-699)
T1 sequence: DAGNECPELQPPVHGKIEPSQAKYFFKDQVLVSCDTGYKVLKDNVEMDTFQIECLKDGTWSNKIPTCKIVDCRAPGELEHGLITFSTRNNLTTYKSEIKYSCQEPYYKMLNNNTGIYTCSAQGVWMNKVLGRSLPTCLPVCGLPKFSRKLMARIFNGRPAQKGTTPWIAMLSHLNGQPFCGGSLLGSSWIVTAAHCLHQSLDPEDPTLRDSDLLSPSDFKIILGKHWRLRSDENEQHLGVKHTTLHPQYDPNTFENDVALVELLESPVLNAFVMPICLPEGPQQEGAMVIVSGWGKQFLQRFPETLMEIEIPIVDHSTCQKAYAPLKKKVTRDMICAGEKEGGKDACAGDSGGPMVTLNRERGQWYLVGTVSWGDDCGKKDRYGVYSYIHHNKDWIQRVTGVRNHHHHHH
experiment: cell-based or functional assay
Bridge positions count the residues as written; N and C are the ends. Square brackets hold non-standard residues; d marks the D form. Ends that are not written are not given here. Oic = O=C(O)[C@@H]1C[C@@H]2CCCC[C@@H]2N1; tBuAla = CC(C)(C)C[C@H](N)C(=O)O; PEG4 = NCCOCCOCCOCCOCCC(=O)O; Pen = CC(C)(S)[C@H](N)C(=O)O; Sar = CNCC(=O)O
The entries below come with measured human MASP1 IC50 values attached.
measured quantity: human MASP1 IC50 (nM)

[[record]]
binder = "[dA]ICSRSLP[Oic]I[Pen]IPQ-NH2 (disulfide 3-11; N-terminus assumed; SMILES CC[C@H](C)[C@H](NC(=O)[C@@H](C)N)C(=O)N[C@H]1CSSC(C)(C)[C@@H](C(=O)N[C@H](C(=O)N2CCC[C@H]2C(=O)N[C@@H](CCC(N)=O)C(N)=O)[C@@H](C)CC)NC(=O)[C@H]([C@@H](C)CC)NC(=O)[C@@H]2C[C@@H]3CCCC[C@@H]3N2C(=O)[C@@H]2CCCN2C(=O)[C@H](CC(C)C)NC(=O)[C@H](CO)NC(=O)[C@H](CCCNC(=N)N)NC(=O)[C@H](CO)NC1=O) [aIC+SRSLP-(Oic)-I-(Pen)+IPQ-NH2]"
value_observed = 5.3

[[record]]
binder = "[dA]ICSRSLP[Oic]I[Pen]IPE-NH2 (disulfide 3-11; N-terminus assumed; SMILES CC[C@H](C)[C@H](NC(=O)[C@@H](C)N)C(=O)N[C@H]1CSSC(C)(C)[C@@H](C(=O)N[C@H](C(=O)N2CCC[C@H]2C(=O)N[C@@H](CCC(=O)O)C(N)=O)[C@@H](C)CC)NC(=O)[C@H]([C@@H](C)CC)NC(=O)[C@@H]2C[C@@H]3CCCC[C@@H]3N2C(=O)[C@@H]2CCCN2C(=O)[C@H](CC(C)C)NC(=O)[C@H](CO)NC(=O)[C@H](CCCNC(=N)N)NC(=O)[C@H](CO)NC1=O) [aIC+SRSLP-(Oic)-I-(Pen)+IPE-NH2]"
value_observed = 5

[[record]]
binder = "[Sar]ICSRS[tBuAla]PPI[Pen]IP[PEG4]-NH2 (disulfide 3-11; N-terminus assumed; SMILES CC[C@H](C)[C@H](NC(=O)CNC)C(=O)N[C@H]1CSSC(C)(C)[C@@H](C(=O)N[C@H](C(=O)N2CCC[C@H]2C(=O)NCCOCCOCCOCCOCCC(N)=O)[C@@H](C)CC)NC(=O)[C@H]([C@@H](C)CC)NC(=O)[C@@H]2CCCN2C(=O)[C@@H]2CCCN2C(=O)[C@H](CC(C)(C)C)NC(=O)[C@H](CO)NC(=O)[C@H](CCCNC(=N)N)NC(=O)[C@H](CO)NC1=O) [((N-Me)G)-IC+SRS-((tBu)A)-PPI-(Pen)+IP-(PEG3(16atoms))-NH2]"
value_observed = 4.35

[[record]]
binder = "[dA]ICSRSLP[Oic]I[Pen]I-NH2 (disulfide 3-11; N-terminus assumed; SMILES CC[C@H](C)[C@H](NC(=O)[C@H]1NC(=O)[C@H]([C@@H](C)CC)NC(=O)[C@@H]2C[C@@H]3CCCC[C@@H]3N2C(=O)[C@@H]2CCCN2C(=O)[C@H](CC(C)C)NC(=O)[C@H](CO)NC(=O)[C@H](CCCNC(=N)N)NC(=O)[C@H](CO)NC(=O)[C@@H](NC(=O)[C@@H](NC(=O)[C@@H](C)N)[C@@H](C)CC)CSSC1(C)C)C(N)=O) [aIC+SRSLP-(Oic)-I-(Pen)+I-NH2]"
value_observed = 3.9

